# system-name: T1, HCoV-OC43 spike antigens (bead panel) (HCoV-OC43, UniProt P36334 14-1297)
# T1 sequence: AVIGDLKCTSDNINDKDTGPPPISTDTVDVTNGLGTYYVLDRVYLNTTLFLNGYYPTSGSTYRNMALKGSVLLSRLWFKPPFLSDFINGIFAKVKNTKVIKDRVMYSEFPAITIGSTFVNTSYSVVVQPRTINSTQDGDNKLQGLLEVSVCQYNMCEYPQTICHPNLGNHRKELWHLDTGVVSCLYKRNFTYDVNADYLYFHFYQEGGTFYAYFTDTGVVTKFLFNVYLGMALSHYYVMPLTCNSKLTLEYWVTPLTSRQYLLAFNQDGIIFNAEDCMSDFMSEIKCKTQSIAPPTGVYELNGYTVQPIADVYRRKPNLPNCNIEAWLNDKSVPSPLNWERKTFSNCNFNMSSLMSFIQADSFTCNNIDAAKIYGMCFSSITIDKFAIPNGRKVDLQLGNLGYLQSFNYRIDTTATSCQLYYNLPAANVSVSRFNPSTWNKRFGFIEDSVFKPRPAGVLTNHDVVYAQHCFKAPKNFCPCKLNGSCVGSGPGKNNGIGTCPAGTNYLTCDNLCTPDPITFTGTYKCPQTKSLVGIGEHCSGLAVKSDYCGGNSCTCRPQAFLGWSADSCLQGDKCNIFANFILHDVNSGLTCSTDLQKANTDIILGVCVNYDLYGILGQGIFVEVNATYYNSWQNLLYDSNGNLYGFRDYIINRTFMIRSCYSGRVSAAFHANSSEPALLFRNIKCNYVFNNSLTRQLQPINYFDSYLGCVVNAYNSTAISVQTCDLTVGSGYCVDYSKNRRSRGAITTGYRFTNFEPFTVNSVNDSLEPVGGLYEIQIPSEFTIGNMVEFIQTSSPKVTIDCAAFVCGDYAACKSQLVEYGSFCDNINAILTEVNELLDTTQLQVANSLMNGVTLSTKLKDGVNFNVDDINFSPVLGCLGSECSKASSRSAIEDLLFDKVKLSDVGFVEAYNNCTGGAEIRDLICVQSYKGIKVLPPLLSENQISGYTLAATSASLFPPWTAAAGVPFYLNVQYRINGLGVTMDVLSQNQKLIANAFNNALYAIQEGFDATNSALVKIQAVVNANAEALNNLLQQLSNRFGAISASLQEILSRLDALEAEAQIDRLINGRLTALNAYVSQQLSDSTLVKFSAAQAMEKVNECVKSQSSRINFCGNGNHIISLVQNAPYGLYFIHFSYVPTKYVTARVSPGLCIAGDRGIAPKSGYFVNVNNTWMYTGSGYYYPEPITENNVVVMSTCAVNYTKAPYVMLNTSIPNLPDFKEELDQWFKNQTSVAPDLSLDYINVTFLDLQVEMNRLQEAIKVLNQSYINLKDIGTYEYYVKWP
# assay-info: multiplex bead assay

{"columns": ["binder", "binding result"],
 "data": [
  ["COV_3088 (antibody, V domains shown, human IgG1) VH: EVQLVESGGGLVQPGGSLRLSCAASGFTFSSYDMHWVRQATGKGLEWVSAIGTAGDTYYPGSVKGRFTISRENAKNSLYLQMNSLRAGDTAVYYCARGSGWPPFFDYWGQGTLVTVSS VL: SYELTQPPSVSVAPGKTARITCGGNNIGSKSVHWYQQKPGQAPVLVIYYDSDRPSGIPERFSGSNSGNTATLTISRVEAGDEADYYCQVWDSSSDHHWVFGGGTKLTVL", "no binding"],
  ["COV_1170 (antibody, V domains shown, human IgG1) VH: QVQLVESGGGVVQPGRSLRLSCAASGFTFSTYAMHWVRQAPGKGLEWVALISYDGSNKYYADSVKGRFTISRDNSKNTLDLQMNSLRAEDTAVYYCARSLGGYRTGFDYWGQGTLVTVSS VL: DIQLTQSPSFLSASVGDRVTITCRASQGISSYLAWYQQKPGKAPKLLIYAASTLQSGVPSRFSGSGSGTEFTLTISSLQPEDFATYYCQQLNSYPPFTFGPGTKVDIKR", "no binding"]
]}
